Measured IC50 accompanies every entry in the list below.
Molecular target: UniProt:P26718
Test: Inhibition of NKG2D (unknown origin)/MICA (unknown origin) protein-protein interaction by cell-based TR-FRET assay
measured_metric: IC50

INSERT INTO results (compound, measured) VALUES
  ('O=C(NC(C(=O)N1CCC[C@@H]1CO)c1cccc(C(F)(F)F)c1)c1ccccc1-c1ccc(C(F)(F)F)cc1 (stereo not given in full)', '4000 nM'),
  ('CN(C)C(=O)C(NC(=O)c1cccc(-c2ccc(C(F)(F)F)cc2)c1)c1cccc(C(F)(F)F)c1 (stereo not given)', '> 20000 nM'),
  ('CN(C)C(=O)[C@@H](NC(=O)c1cnccc1-c1ccc(C(F)(F)F)cc1)c1ccc(Cl)c(C(F)(F)F)c1', '100 nM'),
  ('CN(C)C(=O)[C@@H](NC(=O)c1cnccc1-c1ccc(C(F)(F)F)cc1)c1cc(C(F)(F)F)cc(C(F)(F)F)c1', '200 nM'),
  ('CN(C)C(=O)C(NS(=O)(=O)c1ccccc1-c1ccc(C(F)(F)F)cc1)c1cccc(C(F)(F)F)c1 (stereo not given)', '> 20000 nM'),
  ('O=C(NC(C(=O)N1CCCC1)c1cccc(C(F)(F)F)c1)c1ccccc1-c1ccc(C(F)(F)F)cc1 (racemic)', '2500 nM'),
  ('CN(C)C(=O)[C@@H](NC(=O)c1ncccc1-c1ccc(C(F)(F)F)cc1)c1cccc(C(F)(F)F)c1', '1000 nM'),
  ('CN(C)C(=O)C(NC(=O)c1cncnc1-c1ccc(C(F)(F)F)cc1)c1cccc(C(F)(F)F)c1 (racemic)', '> 20000 nM'),
  ('CN(C)C(=O)[C@@H](NC(=O)c1cnccc1-c1ccc(C(F)(F)F)cc1)c1ccc(Cl)c(Cl)c1', '200 nM'),
  ('CN(C)C(=O)C(NC(=O)c1ccccc1)c1cccc(C(F)(F)F)c1 (stereo not given)', '> 20000 nM'),
  ('O=C(NC(C(=O)N1CCC[C@H]1CO)c1cccc(C(F)(F)F)c1)c1ccccc1-c1ccc(C(F)(F)F)cc1 (stereo not given in full)', '14500 nM'),
  ('CN(C)C(=O)[C@@H](NC(=O)c1cnccc1-c1ccc(C(F)(F)F)cc1)c1cccc(C(F)(F)F)c1', '400 nM'),
  ('CN(C)C(=O)C(C)(NC(=O)c1ccccc1-c1ccc(C(F)(F)F)cc1)c1cccc(C(F)(F)F)c1 (stereo not given)', '> 20000 nM'),
  ('O=C(N[C@H](C(=O)N1C[C@@H]2[C@@H](CO)[C@@H]2C1)c1cccc(C(F)(F)F)c1)c1ccccc1-c1ccc(C(F)(F)F)cc1', '1100 nM'),
  ('CN(C)C(=O)[C@@H](NC(=O)c1ccccc1-c1ccc(C(F)(F)F)cc1)c1cccc(C(F)(F)F)c1', '1200 nM');

###

The following molecules are shown together with reported IC50 values.
Target: NKGD2-ULBP6 (Homo sapiens)
Sequence (P26718 whole entry): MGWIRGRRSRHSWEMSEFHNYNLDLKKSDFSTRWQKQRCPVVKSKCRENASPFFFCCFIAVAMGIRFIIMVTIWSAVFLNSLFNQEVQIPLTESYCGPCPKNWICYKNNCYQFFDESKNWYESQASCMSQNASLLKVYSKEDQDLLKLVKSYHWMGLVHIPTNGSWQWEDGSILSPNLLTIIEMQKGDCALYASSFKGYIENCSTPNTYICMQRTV
Sequence (Q5VY80 whole entry, further chain): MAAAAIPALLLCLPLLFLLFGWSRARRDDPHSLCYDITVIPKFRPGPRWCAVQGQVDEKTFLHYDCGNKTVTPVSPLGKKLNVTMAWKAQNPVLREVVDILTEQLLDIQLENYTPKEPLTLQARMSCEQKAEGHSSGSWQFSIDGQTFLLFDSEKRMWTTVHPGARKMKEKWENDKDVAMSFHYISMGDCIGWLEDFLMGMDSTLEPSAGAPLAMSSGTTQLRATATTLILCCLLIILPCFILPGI
Experiment: Inhibition of NKG2D (unknown origin)/ULBP6 (unknown origin) protein-protein interaction by cell-based TR-FRET assay
measured_metric: IC50 (nM)

INSERT INTO results (molecule, qualifying_sign, measured) VALUES
  ('CN(C)C(=O)[C@@H](NC(=O)c1ncccc1-c1ccc(C(F)(F)F)cc1)c1cccc(C(F)(F)F)c1', '=', 3800),
  ('CN(C)C(=O)C(NC(=O)c1cc(-c2ccnn2C2COC2)ccc1-c1ccc(C(F)(F)F)cc1)c1cccc(C(F)(F)F)c1 (racemic)', '=', 1100),
  ('O=C(NC(C(=O)N1CCC[C@@H]1CO)c1cccc(C(F)(F)F)c1)c1ccccc1-c1ccc(C(F)(F)F)cc1 (stereo partly specified)', '=', 8700),
  ('Cc1n[nH]cc1-c1ccc(-c2ccc(C(F)(F)F)cc2)c(C(=O)NC(C(=O)N(C)C)c2cccc(C(F)(F)F)c2)c1 (racemic)', '=', 2800),
  ('CN(C)C(=O)[C@@H](NC(=O)c1cnccc1-c1ccc(C(F)(F)F)cc1)c1cccc(C(F)(F)F)c1', '=', 1400),
  ('CN(C)C(=O)[C@@H](NC(=O)c1cnccc1-c1ccc(C(F)(F)F)cc1)c1cc(Cl)c(Cl)c(C(F)(F)F)c1', '=', 200),
  ('CN(C)C(=O)C(NC(=O)c1ccccc1-c1ccc(C(F)(F)F)cc1)c1cccc(C(F)(F)F)c1 (racemic)', '=', 5000),
  ('CN(C)C(=O)[C@@H](NC(=O)c1cnccc1-c1ccc(C(F)(F)F)cc1)c1cc(F)cc(C(F)(F)F)c1', '=', 700),
  ('CN(C)C(=O)C(NC(=O)c1cccnc1-c1ccc(C(F)(F)F)cc1)c1cccc(C(F)(F)F)c1 (racemic)', '>', 20000),
  ('CN(C)C(=O)CNC(=O)c1ccccc1-c1ccc(C(F)(F)F)cc1', '>', 20000),
  ('CN(C)C(=O)[C@@H](NC(=O)c1cc(-c2ccnn2C)ccc1-c1ccc(C(F)(F)F)cc1)c1cccc(C(F)(F)F)c1', '=', 700),
  ('Cc1n[nH]c(C)c1-c1ccc(-c2ccc(C(F)(F)F)cc2)c(C(=O)N[C@H](C(=O)N(C)C)c2cccc(C(F)(F)F)c2)c1', '=', 600),
  ('O=C(NCc1cccc(C(F)(F)F)c1)c1ccccc1-c1ccc(C(F)(F)F)cc1', '>', 20000),
  ('CN(C)C(=O)C(NS(=O)(=O)c1ccccc1-c1ccc(C(F)(F)F)cc1)c1cccc(C(F)(F)F)c1 (stereo unspecified)', '>', 20000),
  ('CN(C)C(=O)[C@@H](NC(=O)c1ccccc1-c1ccc(C(F)(F)F)cc1)c1cccc(N2CC(CC(F)(F)F)C2)c1', '=', 3400),
  ('O=C(NC(C(=O)N1CC[C@H](CO)C1)c1cccc(C(F)(F)F)c1)c1ccccc1-c1ccc(C(F)(F)F)cc1 (stereo partly specified)', '>', 20000),
  ('CN(C)C(=O)[C@@H](NC(=O)c1nnccc1-c1ccc(C(F)(F)F)cc1)c1cccc(C(F)(F)F)c1', '=', 1500),
  ('CN(C)C(=O)C(C)(NC(=O)c1ccccc1-c1ccc(C(F)(F)F)cc1)c1cccc(C(F)(F)F)c1 (stereo unspecified)', '>', 20000),
  ('CN(C)C(=O)C(NC(=O)c1ccccc1)c1cccc(C(F)(F)F)c1 (stereo unspecified)', '>', 20000),
  ('CN(C)C(=O)[C@@H](NC(=O)c1cc(-c2nnnn2C)ccc1-c1ccc(C(F)(F)F)cc1)c1cccc(C(F)(F)F)c1', '=', 2400),
  ('O=C(NC(C(=O)N1CCC1)c1cccc(C(F)(F)F)c1)c1ccccc1-c1ccc(C(F)(F)F)cc1 (racemic)', '=', 8200),
  ('CN(C)C(=O)[C@@H](NC(=O)c1cnccc1-c1ccc(C(F)(F)F)cc1)c1ccc(Cl)c(C(F)(F)F)c1', '=', 300),
  ('CN(C)C(=O)C(NC(=O)c1cccc(-c2ccc(C(F)(F)F)cc2)c1)c1cccc(C(F)(F)F)c1 (stereo unspecified)', '>', 20000),
  ('CN(C)C(=O)C(NC(=O)c1ccc(-c2ccc(C(F)(F)F)cc2)cc1)c1cccc(C(F)(F)F)c1 (stereo unspecified)', '>', 20000),
  ('CN(C)C(=O)[C@@H](NC(=O)c1cnccc1-c1ccc(C(F)(F)F)cc1)c1cc(C(F)(F)F)cc(C(F)(F)F)c1', '=', 500),
  ('CN(C)C(=O)C(NC(=O)c1ccccc1-c1ccccc1)c1cccc(C(F)(F)F)c1 (stereo unspecified)', '>', 20000),
  ('CN(C)C(=O)[C@@H](NC(=O)c1ccncc1-c1ccc(C(F)(F)F)cc1)c1cccc(C(F)(F)F)c1', '=', 4800),
  ('CN(C)C(=O)C(NC(=O)c1cncnc1-c1ccc(C(F)(F)F)cc1)c1cccc(C(F)(F)F)c1 (racemic)', '>', 20000),
  ('CN(C)C(=O)[C@@H](NC(=O)c1cc(-c2nnn[nH]2)ccc1-c1ccc(C(F)(F)F)cc1)c1cccc(C(F)(F)F)c1', '=', 1500),
  ('CN(C)C(=O)[C@@H](NC(=O)c1cnccc1-c1ccc(C(F)(F)F)cc1)c1ccc(F)c(C(F)(F)F)c1', '=', 400),
  ('CN(C)C(=O)[C@@H](NC(=O)c1cc(C(=O)NS(C)(=O)=O)ccc1-c1ccc(C(F)(F)F)cc1)c1cccc(C(F)(F)F)c1', '=', 1700);
